tested-on: T1, full-length mature human EMR2 (residues Q24-N823) with N-terminal aspartic acid/lysine epitope tag, … (human, UniProt Q9UHX3 24-823)
T1 sequence: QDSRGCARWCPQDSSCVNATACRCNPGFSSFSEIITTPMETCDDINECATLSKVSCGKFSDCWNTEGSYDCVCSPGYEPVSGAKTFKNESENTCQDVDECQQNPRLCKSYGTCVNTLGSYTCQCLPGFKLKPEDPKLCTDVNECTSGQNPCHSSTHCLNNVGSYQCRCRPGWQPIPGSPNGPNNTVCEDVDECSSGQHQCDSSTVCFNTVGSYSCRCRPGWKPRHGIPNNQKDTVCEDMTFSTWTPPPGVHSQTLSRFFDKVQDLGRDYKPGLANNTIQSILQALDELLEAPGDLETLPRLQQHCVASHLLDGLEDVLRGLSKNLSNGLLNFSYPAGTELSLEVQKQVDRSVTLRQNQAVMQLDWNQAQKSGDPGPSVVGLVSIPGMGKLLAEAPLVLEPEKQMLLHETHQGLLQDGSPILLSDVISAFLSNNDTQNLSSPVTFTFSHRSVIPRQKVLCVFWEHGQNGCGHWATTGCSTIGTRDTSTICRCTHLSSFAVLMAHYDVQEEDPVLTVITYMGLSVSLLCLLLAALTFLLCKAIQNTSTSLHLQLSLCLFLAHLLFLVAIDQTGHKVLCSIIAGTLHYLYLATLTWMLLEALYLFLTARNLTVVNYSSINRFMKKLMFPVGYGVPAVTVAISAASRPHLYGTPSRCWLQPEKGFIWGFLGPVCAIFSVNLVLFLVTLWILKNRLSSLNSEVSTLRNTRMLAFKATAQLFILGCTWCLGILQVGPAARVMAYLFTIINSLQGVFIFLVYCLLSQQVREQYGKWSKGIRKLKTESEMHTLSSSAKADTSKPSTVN
protocol-description: cell-based or functional assay
measured-parameter: % live, FAB-saporin killing assay (%)

SC93.15 (antibody, IgG1, V domains shown) VH: EVQLQQSGPELVKPGASVKISCKGSGYTFTDYFMNWVKLSHGKSLEWIGEINPNNGGTNYNQKFKGKATLTVDKSSSIAYMELRSLTSEDSAVYYCARPGTNYWGPGTTLTVSS VL: DIVMTQSHKFMSTSVGDRVSITCKASQNVGTSVAWYQQKPGHSPKLLIYWASTRHTGVPDRFTGSGSGTDFSLTISSVQSEDLTDYFCQQYSSYPLTFGGGTKLEIK; 15
